- TESTED_SYSTEM: c-erbB-2 (baculovirus expressed recombinant intracellular domain) (Homo sapiens, UniProt P04626)
- Construct: baculovirus expressed, recombinant constructs of the intracellular domains of c-erbB-2 and c-erbB-4 that are constitutively active
- Sequence (P04626 676-1255 limits assumed): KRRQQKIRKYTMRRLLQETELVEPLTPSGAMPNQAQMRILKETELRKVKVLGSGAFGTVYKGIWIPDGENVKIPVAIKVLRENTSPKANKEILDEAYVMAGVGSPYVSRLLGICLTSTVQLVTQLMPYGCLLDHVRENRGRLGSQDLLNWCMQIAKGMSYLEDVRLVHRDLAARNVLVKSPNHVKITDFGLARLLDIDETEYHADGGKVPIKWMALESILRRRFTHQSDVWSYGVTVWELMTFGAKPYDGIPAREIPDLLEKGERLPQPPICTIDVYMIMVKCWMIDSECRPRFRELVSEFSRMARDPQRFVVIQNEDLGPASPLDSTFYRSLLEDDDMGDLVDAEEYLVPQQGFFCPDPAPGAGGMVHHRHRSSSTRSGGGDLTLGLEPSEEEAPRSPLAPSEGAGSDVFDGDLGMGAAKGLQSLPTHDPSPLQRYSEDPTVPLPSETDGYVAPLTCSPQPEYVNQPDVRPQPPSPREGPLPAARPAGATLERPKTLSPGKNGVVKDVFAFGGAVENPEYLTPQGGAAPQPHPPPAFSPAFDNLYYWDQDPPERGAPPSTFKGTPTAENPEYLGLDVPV
- EXPERIMENT: Substrate phosphorylation assay, c-erbB-2
- TEST_PARAMETERS: ATP and peptide at Km, 30 min, room temperature
pIC50: −log10 of the molar value. Structures can show the parent of a compound that is named as a salt.
Param threshold (8) applies to pIC50; output Satisfied when value >= threshold, Not satisfied when value < threshold.

query: Would you say CN(C)c1cc2c(Nc3ccc4c(cnn4Cc4ccc(F)cc4)c3)ncnc2cn1 [Example 17, Hydrochloride] shows pIC50 at minimum 8?
result: Not satisfied

query: pIC50 >= 8 for "CN1CCN(c2cc3c(Nc4ccc5c(cnn5Cc5ccccc5)c4)ncnc3cn2)CC1" ?
result: Not satisfied

query: Say whether "CCN(C)c1cc2c(Nc3ccc4c(cnn4Cc4ccccc4)c3)ncnc2cn1" shows pIC50 of 8 or more.
result: Not satisfied

query: Could you please find out whether c1ccc(COc2cc3c(Nc4ccc5c(cnn5Cc5ccccc5)c4)ncnc3cn2)cc1 [Example 33, Hydrochloride] has pIC50 that meets 8 or exceeds it?
result: Not satisfied

query: Is the recorded value of pIC50 equal to or greater than 8 for this compound? "CNc1cc2c(Nc3ccc4c(cnn4Cc4ccccc4)c3)ncnc2cn1"
result: Not satisfied

query: State whether the measured pIC50 reaches 8, counting equality as reaching it, for "c1ccc(Cn2ncc3cc(Nc4ncnc5cnc(N6CCCC6)cc45)ccc32)cc1"
result: Not satisfied

query: Textbook exercise: given the entry CN(C)c1cc2c(Nc3ccc4c(cnn4Cc4ccccn4)c3)ncnc2cn1 [Example 12, Hydrochloride] , state whether its pIC50 is greater than or equal to 8.
result: Satisfied

query: Given the entry "c1ccc(Cn2ncc3cc(Nc4ncnc5cnccc45)ccc32)cc1" , answer whether its pIC50 meets or surpasses 8.
result: Not satisfied

query: Quick check: does Cc1nnc(-c2cc3c(Nc4ccc5c(cnn5Cc5ccccc5)c4)ncnc3cn2)o1 [Example 29, Hydrochloride] have pIC50 greater than or equal to 8?
result: Satisfied

query: Form field: pIC50 at least 8? Entry: "CN(C)c1cc2c(Nc3ccc4c(cnn4Cc4ccc(O)cc4)c3)ncnc2cn1"
result: Not satisfied

query: Decide: pIC50 of "CC(C)NC(=O)CN1CCN(c2cc3c(Nc4ccc5c(cnn5Cc5ccccc5)c4)ncnc3cn2)CC1" >= 8?
result: Satisfied

query: Tell me whether pIC50 is at least 8 here: "c1ccc(Cn2ncc3cc(Nc4ncnc5cnc(-n6ccnc6)cc45)ccc32)cc1"
result: Not satisfied

query: Could you please find out whether Cc1nnc(-c2cc3c(Nc4ccc5c(cnn5Cc5cccc(F)c5)c4)ncnc3cn2)o1 [Example 30, Hydrochloride] has pIC50 that meets 8 or exceeds it?
result: Satisfied

query: Evaluate CN(C)c1cc2c(Nc3ccc4c(ccn4S(=O)(=O)c4ccccc4)c3)ncnc2cn1 [Example 18, Hydrochloride] : pIC50 at minimum 8?
result: Not satisfied

query: Is pIC50 for "CN(C)c1cc2c(Nc3ccc4c(cnn4Cc4ccccc4)c3)ncnc2cn1" at or above 8?
result: Not satisfied

query: Evaluate Clc1cc2c(Nc3ccc4c(cnn4Cc4ccccc4)c3)ncnc2cn1 [Example 1, Hydrochloride] : pIC50 at minimum 8?
result: Not satisfied

query: Please indicate if the recorded pIC50 for "Cc1nn(Cc2ccccc2)c2ccc(Nc3ncnc4cnc(N(C)C)cc34)cc12" meets or exceeds 8.
result: Not satisfied

query: Quick check, pIC50 >= 8? "c1ccc(Cn2ncc3cc(Nc4ncnc5cnc(N6CCCCC6)cc45)ccc32)cc1"
result: Not satisfied

query: pIC50 >= 8 for "O=C(CN1CCN(c2cc3c(Nc4ccc5c(cnn5Cc5ccccc5)c4)ncnc3cn2)CC1)N1CCOCC1" ?
result: Satisfied

query: Decide: pIC50 of CN(C)c1cc2c(Nc3ccc4c(cnn4Cc4cccnc4)c3)ncnc2cn1 [Example 13, Hydrochloride] >= 8?
result: Not satisfied
